Assay: Primary qHTS for delayed death inhibitors of the malarial parasite plastid, 96 hour incubation
Conditions: P. falciparum luciferase reporter growth; series mostly up to 28.7 µM
About 22,000 (6.9%) of roughly 320,000 compounds were called active. Not shown: some 27% with an inconclusive outcome. Calls come from the whole dose curve; as a rule, active = well fitted inhibition curve with a large enough effect; inconclusive = small, poorly fitted or top-dose-only effect, or another doubt; inactive = no such curve, though single readings can be large or run the other way. Shown is part of a subset that was picked to be rich in actives.
Use one of these outcomes when replying: label 1 (active), label 0 (inactive)

Some solved cases for reference:
Cn1c(=O)cc(SCC(=O)N2CCCC2)c2cc(Cl)ccc21; label 0
CCOC(=O)C1CCN(C(=O)COC(=O)C2CCN(S(=O)(=O)c3ccc4c(c3)OCCO4)CC2)CC1; label 0
C1=C(CCNc2ncnc3c2cnn3-c2ccccc2)CCCC1; label 1
O=C(O)c1cnn2c(C(F)(F)F)cc(-c3ccccc3)nc12; label 0
COc1ccccc1C1/C(=C(/O)c2ccc(C)cc2)C(=O)C(=O)N1Cc1ccco1 (configuration not stated); label 0
CCCCn1c(SCc2ncc(-c3ccccc3)o2)nc2cc(S(N)(=O)=O)ccc21; label 1
CC(C)=N/N=C1/NC(=O)C(Cc2ccccc2)S1 (configuration not stated); label 0
CN(CCC(=O)Nc1cc(S(=O)(=O)N(C)C)ccc1Cl)CC(=O)Nc1ccc(F)cc1; label 0

Called result for "Cn1c(=O)cc(SCC(=O)N2CCN(C(=O)c3ccco3)CC2)c2ccccc21"
label 0

Called result for "COCCCN1C(=O)c2ccc(C(=O)OCC(=O)NCc3ccccc3OC)cc2C1=O"
label 0

Called result for "COc1ccc(Cl)cc1NC(=O)COc1ccc2c(c1)OCO2"
label 0

Called result for O=C1c2ccccc2C(Nc2ccc3c(c2)OCCO3)N1Cc1ccco1 (configuration not stated)
label 1

Called result for "CCCCn1c(SCC(=O)N2CCCC2=O)nc2cc(S(N)(=O)=O)ccc21"
label 0

Called result for CN(C)P(=S)(Nc1ccccc1)C(Cl)(Cl)Cl (configuration not stated)
label 1

Called result for "COc1ccc(S(=O)(=O)n2cnc3ccccc32)c(C)c1"
label 0

Called result for "CC(C)Sc1ncnc2c1cnn2-c1ccccc1"
label 0

Called result for "O=C(c1ccco1)N1CCN=C1SCc1cccc(Cl)c1"
label 1

Called result for "COc1ccc(C(=O)Nc2ccccc2C(=O)NCc2ccco2)cc1"
label 0

Called result for "CCCCn1c(SCC(=O)N2CCC(C(=O)OCC)CC2)nc2cc(S(N)(=O)=O)ccc21"
label 1

Called result for "O=C(NCc1ccco1)c1cnn2c(C(F)(F)F)cc(-c3ccco3)nc12"
label 1

Called result for "S=C(NCc1ccco1)Nc1ccc2c(c1)OCCO2"
label 0

Called result for "COc1ccccc1N1CCN(S(=O)(=O)CCNC(=O)c2ccc(OC(C)C)cc2)CC1"
label 0
